- target-or-system: T1, Mis12–Nnf1 complex (full-length Mis12 and full-length Nnf1) (S. pombe, UniProt Q9Y738 1-259; Q09858 1-205)
- T1 sequence (looked up) 1: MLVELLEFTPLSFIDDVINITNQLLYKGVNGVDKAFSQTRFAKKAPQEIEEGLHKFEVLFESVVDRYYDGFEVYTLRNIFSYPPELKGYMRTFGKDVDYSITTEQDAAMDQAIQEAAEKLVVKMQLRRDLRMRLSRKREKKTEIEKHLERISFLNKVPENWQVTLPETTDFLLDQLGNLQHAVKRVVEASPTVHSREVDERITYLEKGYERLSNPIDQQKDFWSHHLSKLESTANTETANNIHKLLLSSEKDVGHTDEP
- T1 sequence (looked up) 2: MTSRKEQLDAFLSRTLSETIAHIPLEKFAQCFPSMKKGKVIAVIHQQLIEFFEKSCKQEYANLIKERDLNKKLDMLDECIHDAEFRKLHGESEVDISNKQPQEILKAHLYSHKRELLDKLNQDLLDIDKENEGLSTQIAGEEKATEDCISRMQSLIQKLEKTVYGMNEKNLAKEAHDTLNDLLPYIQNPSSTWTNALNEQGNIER
- method-notes: pull-down
endpoint-label: binding result

GST-Cnp3(1–155) (domain or fragment, S. pombe, UniProt Q9USR9 1-155, looked up) MTMNETSAIPARQRENQFFEIGVVGRKTGFTVPRDVKKGDDGFEDMDAYFLSDGSIHLDEDNGDIEQDMPPVTRLQPTSPMAVNAASDEASHASSSDSSDKNPDIPSSPLLMNSRALRASRGSSGPLIVPIDHSAFQAEDEGTADKTKVDGNKLS; binds
GST-Cnp3(1–155)^T28A (domain or fragment, S. pombe, UniProt Q9USR9 1-155, looked up) MTMNETSAIPARQRENQFFEIGVVGRKAGFTVPRDVKKGDDGFEDMDAYFLSDGSIHLDEDNGDIEQDMPPVTRLQPTSPMAVNAASDEASHASSSDSSDKNPDIPSSPLLMNSRALRASRGSSGPLIVPIDHSAFQAEDEGTADKTKVDGNKLS; binds
GST-Cnp3(1–60)^WT (domain or fragment, S. pombe, UniProt Q9USR9 1-60, looked up) MTMNETSAIPARQRENQFFEIGVVGRKTGFTVPRDVKKGDDGFEDMDAYFLSDGSIHLDE; binds
RKTGFTVPRDVKKGDDGFEDMDAYF (domain or fragment, S. pombe, UniProt Q9USR9 26-50, looked up) [GST-Cnp3(26–50)]; binds
